Target: pooled human IgG (human IgG1, 2, 3 and 4)
Assay Endpoint: Enzyme Activity Endpoint Assay (purified): scIgG (ng/µL)
// return numeric value only (unit: ng/µL, not printed)

PRT-404 (protein) MVTSVWTKGVTPPADFTQGEDVFHAPYVANQGWYDITKTFNGKDDLLCGAATAGNMLHWWFDQNKEYIEAYLKKHPEKQKIMFGDQELLDVRKAINTKGSQKNSELFNYFRDKAFPNLSARRLGVMPDLVLDMFINGYYLNVTKTQTTDVNRTYQEKDKRGGIFDAVFTRGDQSKLLTSRHDFKEKGLKEISDLIKQELTEGKALGLSHTYANVRIGHVINLWGADFDSDGNLKAIYVTDSDSNASIGMKKYFVGVNSAGKVAISAKEIKEDNIGAQVLGLFTLSTGQDIWNQTN
0
PRT-461 (protein) MVTSVWTKGVTPPTDFRKIVDGNIAYYHAPYKAGQGWYDITKTFNGKDDLLCGAATAGNMLHWWFDQNKDQIERYLKEHPEKQKINFNGEQMFDVKEAIDTKDSQTDSKLFEYFKEKAFPYLSTKHLGVFPDHVLDMFINGYRLSLTNHGPTPVKEGSKDPRGGIFDAVFTRGDQSKLLTSRHDFKEKTLKEISDLIKQELTEGKALGLSHTYANVRINHVINLWGADFDSEGNLKAIYVTDSDSNASIGMKKYFVGVNSAGKVAISAKEIKEDNIGAQVLGLFTLSTGQDIWNQTNLEHHHHHH
298

Query protein follows.
According to the records, this protein PRT-490 (protein) MVTSVWTKGVTPPTDFIYGEDVLHAPYKAGQGWYDITKTFNGKDNLLCGAATAGNMLHWWFDQNKEQIENYLKKHPEKQKIIFNNQELFDLKAAIDTKDSQLDSKLFEYFKEKAFPYLSTKHLGVFPDHVIDMFINGYRLSLTNHGPTPVKRGSKDKRGGIFDAVFTRGVQSKLLTNRHDFKEKTLKEISDLIKQELTEGKALGISHTYANVRINHVINLWGADFDAEGNLEAIYVTDSDTNASIGMKKYFVGVNSNGKVAISAKEIEEDNIGAQVLGLFTLSTGQDIWNQTNLEHHHHHH displays Enzyme Activity Endpoint Assay (purified): scIgG of 875
